tested on: MS2 coat protein; experiment: apparent KD of MS2 coat protein; designed switch direction (-1 OFF switch, 1 ON switch): -1; higher = weaker reporter binding; details: Eterna round: R95; input ligand: none
# apparent KD of MS2 coat protein values compiled below
Quick note: give the figure in nM, leave out the unit.

Look over these answered cases.
AGUAGGUCUACCUUGGUGGAUCUGCAUAAAGCAAGUGAAACAUGAGGAUCACCCAUGUCCUCAUUUGCUCGUCUUAU [JL turnoff v2 99.20] (puzzle: Sensor v3, turn-off variant 2); 13
CGUGCGUAUGUGAGGAUAUGCUGGUCCUUGGAUCAGCAGAAGGCACAUGAGGAUCACCCAUGUGGUGUCGUACG [salish99_Bmod_Ex4_018] (puzzle: Brourd's mod of Exclusion 4); 395

INPUT: Please report the measured apparent KD of MS2 coat protein for AAGAAGAUAGGAUAUACGAGGAGAGGAGAGAAGAGGAGAGGACAUGAGGAUCACCCAUGUAGAAGGAUCAGGAA [JR_Exclu2_Sub062] (puzzle: Exclusion 2) tested on MS2 coat protein.
OUTPUT: 28.5

INPUT: Under MS2 coat protein, report apparent KD of MS2 coat protein for UAUUAACAAGCUAGAUCCCACAUGAGGAUCACCCAUGUGCUCGUCUUAUAAGGUACUGUGACGAAAGUCACGGUACC [Sensor 3, v1 - 78] (puzzle: Sensor v3, turn-off variant 1)
OUTPUT: 32.3

INPUT: Provide the reported apparent KD of MS2 coat protein (system: MS2 coat protein) for CAUGGAUGUGAGCCGCAUUACAUGAGGAUCACCCAUGUCAACAAGCUUUUUGCUUGUCUUACGCGGCGACAUCAGAA [Tiquatge] (puzzle: Sensor v3, turn-off variant 1)
OUTPUT: 10.1

====

# maps each entry to its apparent KD of MS2 coat protein
test system: MS2 coat protein; experiment: apparent KD of MS2 coat protein, switch ON state; designed switch direction (-1 OFF switch, 1 ON switch): 1; higher = weaker reporter binding; details: FMN input: 0 or 200 uM; Eterna round: R93 (includes R88 designs)
The reply should consist of the numeric value with the unit placed after it.

Reference set (5 entries):
AAAACACAUGAGGAUCACCCAUGUAAAAACAUGAGAGGAUAUGCAUGGAAAAAAAACUAUGCAGAAGGCUCAUGUG [SS1 - 4]; 21.2 nM
AGAAAUAAAGGAGAGGAUAUCCAAAAGAAAACAUGAGGAUCACCCAUGUAAAAGAAAAUAAAGUGGGAGAAGGCUUCAAAUAAGA [Starry modified V5]; 18.7 nM
GAAAAACAUGAGGAUCACCCAUGUAGAAAUAUGGGAGGAUAUACAAAGACGAAAGUCAAGGUAGAAGGCCUAAAAG [Mat - Same State 1 - Eli mod - 25]; 37.5 nM
AAAUAAAUGACUCAGGAUAUGUCAGAGAAAACAUGAGGAUCACCCAUGUAAUAAUAACAUGUGUGACAGAAGGGAGUCAAUAAAU [LROPPY Same State 2 - v01_deltaG=.6]; 27.2 nM
ACUAUACAUGAGGAUCACCCAUGUUAGGUGGGACUAGGAUAUCAAAAGCCAGAGUAAGAAUGAGAAGGAGUAGAAA [JR_SS001_Sub301]; 32.8 nM

We now examine a further sequence.
INPUT: Given AAAACACAUGAGGAUCACCCAUGUAAAAACUUGGGAGGAUAUGCUUGGAAAACAUGCUAUGCAGAAGGCUCUAGUG [SS1 - 13] , respond with its apparent KD of MS2 coat protein.
OUTPUT: 49.9 nM

Ref: the supplement of paper PMC9170038
